Molecular target: Phosphatidylinositol 4,5-bisphosphate 3-kinase catalytic subunit alpha isoform (Homo sapiens, UniProt P42336)
Sequence (P42336 whole entry, canonical isoform): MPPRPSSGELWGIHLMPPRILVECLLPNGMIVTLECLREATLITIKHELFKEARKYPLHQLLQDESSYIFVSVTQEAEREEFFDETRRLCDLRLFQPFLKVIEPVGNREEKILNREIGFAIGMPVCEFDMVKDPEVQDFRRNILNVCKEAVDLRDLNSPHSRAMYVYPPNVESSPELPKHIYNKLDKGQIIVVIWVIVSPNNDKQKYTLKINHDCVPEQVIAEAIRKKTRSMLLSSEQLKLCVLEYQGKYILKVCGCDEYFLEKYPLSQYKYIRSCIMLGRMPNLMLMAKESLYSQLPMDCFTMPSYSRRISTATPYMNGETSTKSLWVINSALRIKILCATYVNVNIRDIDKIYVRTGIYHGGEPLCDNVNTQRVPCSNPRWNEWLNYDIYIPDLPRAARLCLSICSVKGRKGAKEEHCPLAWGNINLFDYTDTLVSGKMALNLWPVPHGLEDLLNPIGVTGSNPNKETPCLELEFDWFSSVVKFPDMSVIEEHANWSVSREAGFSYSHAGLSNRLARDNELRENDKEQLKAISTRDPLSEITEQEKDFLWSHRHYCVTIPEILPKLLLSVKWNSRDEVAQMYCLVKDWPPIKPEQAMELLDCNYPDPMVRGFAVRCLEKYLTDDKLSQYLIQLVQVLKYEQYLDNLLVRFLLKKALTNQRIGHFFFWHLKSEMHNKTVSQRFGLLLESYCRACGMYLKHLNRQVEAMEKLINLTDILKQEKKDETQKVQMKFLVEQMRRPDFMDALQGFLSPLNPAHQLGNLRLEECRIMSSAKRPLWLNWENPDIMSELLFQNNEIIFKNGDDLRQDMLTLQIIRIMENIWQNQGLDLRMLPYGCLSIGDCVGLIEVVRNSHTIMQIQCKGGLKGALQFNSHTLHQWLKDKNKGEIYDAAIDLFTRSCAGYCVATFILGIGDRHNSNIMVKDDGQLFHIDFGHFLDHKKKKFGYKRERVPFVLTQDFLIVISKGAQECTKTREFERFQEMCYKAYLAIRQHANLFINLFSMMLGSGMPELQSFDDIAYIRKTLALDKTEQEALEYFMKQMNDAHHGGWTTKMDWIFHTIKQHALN
Assay: Inhibition of PI3Kalpha
reported-property: IC50 (µM)
The reply should be a number in µM, with the unit left off.

Q) Need IC50 of `COC(=O)N1CCC(n2ncc3c(N4CC5CCC(C4)O5)nc(-c4ccc(NC(=O)NC5CC5)cc4)nc32)CC1` , thanks.
A) 4.32

###

Biological target: Phosphatidylinositol 4,5-bisphosphate 3-kinase catalytic subunit beta isoform (Homo sapiens, UniProt P42338)
Sequence (P42338 whole entry, canonical isoform): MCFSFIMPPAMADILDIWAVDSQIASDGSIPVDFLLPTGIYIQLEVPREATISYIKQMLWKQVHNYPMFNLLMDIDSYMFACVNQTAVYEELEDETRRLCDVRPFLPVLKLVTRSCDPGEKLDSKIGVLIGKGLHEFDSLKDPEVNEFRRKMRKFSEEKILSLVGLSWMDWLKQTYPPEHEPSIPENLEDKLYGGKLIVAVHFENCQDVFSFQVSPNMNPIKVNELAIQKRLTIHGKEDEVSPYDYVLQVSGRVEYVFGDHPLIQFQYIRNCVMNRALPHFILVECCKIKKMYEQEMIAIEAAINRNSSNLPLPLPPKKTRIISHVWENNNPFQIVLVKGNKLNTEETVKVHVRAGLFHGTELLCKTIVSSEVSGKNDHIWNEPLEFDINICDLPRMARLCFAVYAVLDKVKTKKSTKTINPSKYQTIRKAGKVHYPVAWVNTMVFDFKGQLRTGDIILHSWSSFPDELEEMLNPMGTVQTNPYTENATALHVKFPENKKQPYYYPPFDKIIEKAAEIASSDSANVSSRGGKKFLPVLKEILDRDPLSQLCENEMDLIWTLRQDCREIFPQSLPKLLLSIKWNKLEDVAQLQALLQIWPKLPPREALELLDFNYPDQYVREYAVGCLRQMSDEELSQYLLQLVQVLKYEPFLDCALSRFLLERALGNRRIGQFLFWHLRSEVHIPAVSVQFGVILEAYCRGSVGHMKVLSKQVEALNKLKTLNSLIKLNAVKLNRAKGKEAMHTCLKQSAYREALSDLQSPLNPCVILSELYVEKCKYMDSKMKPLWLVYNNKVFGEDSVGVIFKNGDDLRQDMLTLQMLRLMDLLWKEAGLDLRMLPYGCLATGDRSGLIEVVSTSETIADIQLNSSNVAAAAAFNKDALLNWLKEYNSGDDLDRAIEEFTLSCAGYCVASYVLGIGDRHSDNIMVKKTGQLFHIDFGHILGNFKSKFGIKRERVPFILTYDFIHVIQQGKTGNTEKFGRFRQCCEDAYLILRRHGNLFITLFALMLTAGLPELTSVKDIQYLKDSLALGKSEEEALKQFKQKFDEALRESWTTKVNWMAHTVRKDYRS
Assay: Inhibition of PI3Kbeta
pIC50: −log10 of the molar value.
reported-property: pIC50

Q) Need pIC50 of `COC(=O)N1CCC(n2ncc3c(N4CC5CCC(C4)O5)nc(-c4ccc(NC(=O)NC5CC5)cc4)nc32)CC1` , thanks.
A) < 5.00
